- Study system: ER (Homo sapiens, UniProt P03372)
- Construct: host or cells: T47D and MCF7 human breast cancer cells
- Experimental details: ER degradation activity, in-cell western blot analysis in T47D cells
- Type: cell-based
- Measurement parameters: 16 hours, Table A does not say which cell line (T47D or MCF7), read-out: Potency (DC50)
Quantity kind: DC50

Query: DC50; subject: C[C@@H]1Cc2c([nH]c3ccccc23)[C@@H](c2c(F)cc(N3CCC4(CC3)CN(C(=O)CN3Cc5cc6c(cc5C3)C(=O)N(C3CCC(=O)NC3=O)C6=O)C4)cc2F)N1CC(F)(F)F (stereo partly drawn) 0.01 to 0.1 µM

Try C[C@@H]1Cc2c([nH]c3ccccc23)[C@@H](c2c(F)cc(N3CCC4(CCN(CC5Cc6cc7c(cc6C5)C(=O)N(C5CCC(=O)NC5=O)C7=O)CC4)CC3)cc2F)N1CC(F)(F)F (stereo partly drawn) next. > 0.1 µM

Try O=C1CCC(N2Cc3cc4c(cc3C2=O)CN(C(=O)C2CCC(NC3CN(c5ccc([C@@H]6c7ccc(O)cc7CC[C@@H]6c6ccccc6)cc5)C3)CC2)C4)C(=O)N1 (stereo partly drawn) next. 0.01 to 0.1 µM

---

- Study system: ER (Homo sapiens, UniProt P03372)
- Construct: host or cells: T47D and MCF7 human breast cancer cells
- Experimental details: ER degradation activity, in-cell western blot analysis in T47D cells
- Format: cell-based
- Measurement parameters: 16 hours, Table A does not say which cell line (T47D or MCF7), read-out: Potency (DC50)
Exercise: state measured DC50 for each of the compounds provided.

Provide the documented DC50 with ER (Homo sapiens, UniProt P03372) as the system for O=C1CCC(N2C(=O)c3cc4c(cc3C2=O)CN(C2CCC(NC3CCN(c5ccc([C@@H]6c7ccc(O)cc7CC[C@@H]6c6ccccc6)cc5)CC3)CC2)C4)C(=O)N1 (some centres unmarked) [E 303] > 100 nM

Try C[C@@H]1Cc2c([nH]c3ccccc23)[C@H](c2c(F)cc(CN3CCC4(CCC(CN5Cc6cc7c(cc6C5)C(=O)N(C5CCC(=O)NC5=O)C7=O)CC4)CC3)cc2F)N1CC(F)F (some centres unmarked) [E 381] next. > 100 nM

Try O=C1CCC(N2C(=O)c3cc4c(cc3C2=O)CN(C2CN(C(=O)C3CCN(c5ccc([C@@H]6c7ccc(O)cc7CC[C@@H]6c6ccccc6)cc5)CC3)C2)C4)C(=O)N1 (mixture of isomers) [E 15] next. 10 to 100 nM

Try C[C@@H]1Cc2c([nH]c3ccccc23)[C@@H](c2c(F)cc(-c3ccc(C(=O)N4CCC(N5Cc6cc7c(cc6C5)C(=O)N(C5CCC(=O)NC5=O)C7=O)CC4)nn3)cc2F)N1CC(F)F (some centres unmarked) [E 345] next. 10 to 100 nM

Try O=C1CCC(N2C(=O)c3cc4c(cc3C2=O)CN(C2CCN(CC3CN(c5ccc([C@H]6c7ccc(O)cc7CC[C@H]6c6ccc(F)cc6)cc5)C3)CC2)C4)C(=O)N1 (some centres unmarked) [E 276] next. > 100 nM

---

- Study system: ER (Homo sapiens)
- Construct: host or cells: T47D and MCF7 human breast cancer cells
- Experimental details: ER degradation activity, in-cell western blot analysis in T47D cells
- Assay type: cell-based
- Measurement parameters: 16 hours, Table A does not say which cell line (T47D or MCF7), read-out: Potency (DC50)
Exercise: state measured DC50 for each of the compounds provided.

Query: DC50; subject: C[C@@H]1Cc2c([nH]c3ccccc23)[C@@H](c2c(F)cc(N3CCC(N4CC(CC(=O)N5Cc6cc7c(cc6C5)C(=O)N(C5CCC(=O)NC5=O)C7=O)C4)CC3)cc2F)N1CC(F)F (some centres unmarked) [E 55] > 100 nM

Try O=C1CCC(N2C(=O)c3cc4c(cc3C2=O)CN(Cc2cnc(N3CC(Oc5ccc([C@@H]6c7ccc(O)cc7CC[C@@H]6c6ccccc6)cc5)C3)cn2)C4)C(=O)N1 (some centres unmarked) [E 342] next. > 100 nM

Try O=C1CCC(N2C(=O)c3cc4c(cc3C2=O)CN(CC2(F)CCN(C(=O)C3(F)CN(c5ccc([C@@H]6c7ccc(O)cc7CC[C@@H]6c6ccccc6)cc5)C3)CC2)C4)C(=O)N1 (some centres unmarked) [E 202] next. > 100 nM

Try O=C1CCC(N2C(=O)c3cc4c(cc3C2=O)CN(CC(=O)N2CCC3(CCC(Oc5ccc([C@@H]6c7ccc(O)cc7CC[C@@H]6c6ccccc6)cc5)CC3)CC2)C4)C(=O)N1 (some centres unmarked) [E 224] next. > 100 nM

Try C[C@@H]1Cc2c([nH]c3ccccc23)[C@@H](c2c(F)cc(N3CC4(CC(C(=O)N5CCC(CN6Cc7cc8c(cc7C6)C(=O)N(C6CCC(=O)NC6=O)C8=O)CC5)C4)C3)cc2F)N1CC(F)F (some centres unmarked) [E 115] next. < 10 nM

Try C[C@@H]1Cc2c([nH]c3ccccc23)[C@@H](c2c(F)cc(N3CCC4(CCN(C(=O)CN5Cc6cc7c(cc6C5)C(=O)N(C5CCC(=O)NC5=O)C7)C4)C3)cc2F)N1CC(F)F (some centres unmarked) [E 68] next. 10 to 100 nM

Try C[C@@H]1Cc2c([nH]c3ccccc23)[C@@H](c2c(F)cc(N3CCCC(CN4CCC(N5Cc6cc7c(cc6C5)C(=O)N(C5CCC(=O)NC5=O)C7=O)CC4)C3)cc2F)N1CC(F)F (some centres unmarked) [E 59] next. 10 to 100 nM

Try C[C@@H]1Cc2c([nH]c3ccccc23)[C@@H](c2c(F)cc(N3CCC(CN4CC5(CC(N6Cc7cc8c(cc7C6)C(=O)N(C6CCC(=O)NC6=O)C8=O)C5)C4)CC3)cc2F)N1CC(F)F (some centres unmarked) [E 131] next. < 10 nM

Try C[C@@H]1Cc2c([nH]c3ccccc23)[C@H](c2c(F)cc(CN3CCC4(CCC(C(=O)N5Cc6cc7c(cc6C5)C(=O)N(C5CCC(=O)NC5=O)C7=O)CC4)CC3)cc2F)N1CC(F)F (some centres unmarked) [E 383] next. > 100 nM

Try C[C@@H]1Cc2cc(O)ccc2[C@@H](c2c(F)cc(N3CCC4(CC3)CN(CC(=O)N3Cc5cc6c(cc5C3)C(=O)N(C3CCC(=O)NC3=O)C6)C4)cc2F)N1CC(F)F (some centres unmarked) [E 39] next. < 10 nM

Try C[C@@H]1Cc2c([nH]c3ccccc23)[C@@H](c2c(F)cc(N3CCC4(CCN(C(=O)CN5Cc6cc7c(cc6C5)C(=O)N(C5CCC(=O)NC5=O)C7=O)C4)C3)cc2F)N1CC(F)F (some centres unmarked) [E 79] next. 10 to 100 nM

Try O=C1CCC(N2C(=O)c3cc4c(cc3C2=O)CN(CC(=O)N2CC(n3cc(-c5ccc([C@@H]6c7ccc(O)cc7CC[C@@H]6c6ccccc6)cc5)cn3)C2)C4)C(=O)N1 (some centres unmarked) [E 215] next. > 100 nM

Try C[C@@H]1Cc2c([nH]c3ccccc23)[C@@H](c2c(F)cc(C3CCC(C(=O)N4CCC(CN5Cc6cc7c(cc6C5)C(=O)N(C5CCC(=O)NC5=O)C7=O)CC4)CC3)cc2F)N1CC(F)F (some centres unmarked) [E248] next. > 100 nM

Try C[C@@H]1Cc2cc(O)ccc2[C@@H](c2c(F)cc(N3CC4(CCN(C(=O)CN5Cc6cc7c(cc6C5)C(=O)N(C5CCC(=O)NC5=O)C7=O)CC4)C3)cc2F)N1CC(F)F (some centres unmarked) [E 45] next. < 10 nM

Try O=C1CCC(N2C(=O)c3cc4c(cc3C2=O)CN(CC(=O)N2CCC3(CC2)CCN(c2ccc([C@@H]5c6ccc(O)cc6CC[C@@H]5c5ccccc5)cc2)CC3)CC4)C(=O)N1 (mixture of isomers) [E 172] next. 10 to 100 nM

Try O=C1CCC(N2C(=O)c3cc4c(cc3C2=O)CN(CC(=O)N2CCC3(CC2)CN(c2ccc([C@@H]5c6ccc(O)cc6CC[C@@H]5c5ccccc5)cc2)C3)C4)C(=O)N1 (mixture of isomers) [E 10] next. 10 to 100 nM

Try O=C1CCC(N2C(=O)c3cc4c(cc3C2=O)CN(CC2(F)CN(CC3CCN(c5ccc([C@@H]6c7ccc(O)cc7CC[C@@H]6c6ccccc6)cc5)CC3)C2)C4)C(=O)N1 (some centres unmarked) [E 212] next. > 100 nM

Try O=C1CCC(N2C(=O)c3cc4c(cc3C2=O)CN(CC(=O)N2CCC3(CC2)CCN(c2cnc([C@@H]5c6ccc(O)cc6CC[C@@H]5c5ccccc5)cn2)CC3)C4)C(=O)N1 (mixture of isomers) [E 304] next. > 100 nM

Try C[C@@H]1Cc2c([nH]c3ccccc23)[C@@H](c2cnc(N3CCC4(CCN(C(=O)CN5Cc6cc7c(cc6C5)C(=O)N(C5CCC(=O)NC5=O)C7=O)CC4)CC3)nc2)N1CC(F)F (some centres unmarked) [E 258] next. < 10 nM

Try C[C@@H]1Cc2c([nH]c3ccccc23)[C@@H](c2c(F)cc(N3CCC(CN4CCC(CN5Cc6cc7c(cc6C5)C(=O)N(C5CCC(=O)NC5=O)C7=O)CC4)CC3)cc2F)N1CC(F)F (some centres unmarked) [E 128] next. < 10 nM

Measured values drawn from patent US20240190880A1 for this set.
